B1: HDV Ribozyme (parent)
chain: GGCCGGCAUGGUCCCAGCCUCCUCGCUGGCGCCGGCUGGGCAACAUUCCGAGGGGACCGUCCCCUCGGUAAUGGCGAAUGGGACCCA

Variants of: B1
Experiment: self-cleavage, relative activity (ratio to wild type); higher = more cleavage; co-transcriptional
readout name: self-cleavage
Give bare numbers.

Hello, I would appreciate it if you could give self-cleavage for each entry below.
1. C66A A83G
2. G17A C84U
3. C26G G54C
4. G52U G55A
5. C32A G80C

Out:
1. 0.641
2. 0.598
3. 0.782
4. 0.731
5. 0.161
